Taken from ChEMBL document CHEMBL1201862.

target: Ataxin-2 (Homo sapiens) (UniProt Q99700); assay: qHTS for Inhibitors of ATXN expression.; format: functional
Sequence (Q99700 whole entry): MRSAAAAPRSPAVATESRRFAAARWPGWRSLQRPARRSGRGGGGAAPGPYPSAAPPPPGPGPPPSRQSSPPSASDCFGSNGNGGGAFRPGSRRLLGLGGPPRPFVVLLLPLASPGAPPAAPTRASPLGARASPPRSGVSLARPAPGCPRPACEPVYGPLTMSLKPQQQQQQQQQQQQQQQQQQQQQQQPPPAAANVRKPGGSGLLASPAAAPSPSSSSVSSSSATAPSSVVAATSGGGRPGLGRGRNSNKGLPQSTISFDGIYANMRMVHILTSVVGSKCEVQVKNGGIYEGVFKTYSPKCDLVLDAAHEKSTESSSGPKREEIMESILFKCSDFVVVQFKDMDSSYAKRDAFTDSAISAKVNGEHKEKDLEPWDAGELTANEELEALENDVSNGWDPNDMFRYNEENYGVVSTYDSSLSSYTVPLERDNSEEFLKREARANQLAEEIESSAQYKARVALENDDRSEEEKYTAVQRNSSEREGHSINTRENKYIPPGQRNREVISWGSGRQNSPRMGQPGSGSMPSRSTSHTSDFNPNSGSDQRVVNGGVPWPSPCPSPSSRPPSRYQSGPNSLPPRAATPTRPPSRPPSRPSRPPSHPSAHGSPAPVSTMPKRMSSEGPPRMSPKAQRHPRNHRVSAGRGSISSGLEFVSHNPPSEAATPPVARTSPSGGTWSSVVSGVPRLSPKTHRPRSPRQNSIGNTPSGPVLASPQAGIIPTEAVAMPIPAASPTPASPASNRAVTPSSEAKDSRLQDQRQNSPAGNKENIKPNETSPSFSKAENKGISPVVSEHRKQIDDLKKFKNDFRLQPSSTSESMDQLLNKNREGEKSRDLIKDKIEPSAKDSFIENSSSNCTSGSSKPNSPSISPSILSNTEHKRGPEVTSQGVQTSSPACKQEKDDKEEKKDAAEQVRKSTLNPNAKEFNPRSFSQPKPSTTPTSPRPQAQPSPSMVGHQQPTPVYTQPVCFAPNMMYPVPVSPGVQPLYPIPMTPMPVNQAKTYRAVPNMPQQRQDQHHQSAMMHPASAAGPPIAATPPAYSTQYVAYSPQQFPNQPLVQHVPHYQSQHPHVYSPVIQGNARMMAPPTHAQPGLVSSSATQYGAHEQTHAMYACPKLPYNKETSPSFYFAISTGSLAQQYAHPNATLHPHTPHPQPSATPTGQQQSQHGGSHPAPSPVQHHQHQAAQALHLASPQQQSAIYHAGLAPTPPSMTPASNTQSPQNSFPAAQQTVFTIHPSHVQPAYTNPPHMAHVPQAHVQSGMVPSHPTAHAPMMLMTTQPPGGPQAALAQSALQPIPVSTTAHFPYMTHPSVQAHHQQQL
Out of some 400,000 compounds screened, about 2,100 (0.53%) were called active. Another 14% or so got no clear call; they are omitted. No rule for the calls is given here. The sample as a whole holds a higher share of actives than the screen did.
Result category, one only: active, inactive

### Prompt Look up the recorded call for Cc1ccc2nc3c(cc(C(=O)NC4CCS(=O)(=O)C4)n3Cc3ccccc3)c(=O)n2c1 (stereo unspecified) in this test.
### Response inactive

### Prompt # fetch the recorded call for Cc1ccc2nc(C3CCCCC3)c(Cc3cccc(Cl)c3)n2c1 here
### Response active

### Prompt What did the test return for CCc1c(C)sc(NC(=O)c2cc(-c3cc(OC)ccc3OC)on2)c1C#N ?
### Response active

### Prompt Called result for CC1CCCCC1NC(=O)CN1C(=O)c2cccc(N)c2C1=O (stereo unspecified)
### Response inactive

### Prompt Tell me the recorded outcome of this test for COc1ccccc1Cc1c(C2CCCCC2)nc2ccc(Br)cn12 .
### Response active

### Prompt Recorded call for NNC(=O)c1oc2nc(-c3ccccc3)cc(-c3ccccc3)c2c1N ?
### Response inactive

### Prompt Give the logged outcome of this assay for the following compound: COc1ccccc1Cc1c(C2CCCCC2)nc2ccc(C)cn12
### Response active

### Prompt Hi, sorry to bother you, what did the test record for CCS(=O)(=O)c1ccc(N=Nc2ccc(O)c3ncccc23)c(OC)c1 ?
### Response active

### Prompt Call for entry COc1ccc(-c2nc3ccc(NS(=O)(=O)c4ccc(C)cc4)cc3o2)cc1 :
### Response active

### Prompt Name the outcome recorded for CCN(CC)S(=O)(=O)c1cc(OC)ccc1N=Nc1ccc(O)c2ncccc12 in the assay.
### Response active

### Prompt Assay outcome for COc1ccc(NC(=O)c2cc(-c3ccco3)on2)c(OC)c1 : what was it?
### Response inactive

----------
target: Ataxin-2 (Homo sapiens) (UniProt Q99700); assay: qHTS for Inhibitors of ATXN expression.; type: functional
In all, about 400,000 compounds went through this assay and about 2,100 (0.53%) were called active. Roughly 14% stayed inconclusive and do not appear here. How the calls were made is not given here. The sample holds actives, similar compounds and a random draw of the others, so the mix is not that of the screen.
Choose one outcome from this list and give only that: active, inactive

### Prompt Each compound tested received a call. Report the one for CC(NC(=O)c1ccc2ccccc2n1)c1ccc(S(N)(=O)=O)cc1 (stereo unspecified) .
### Response inactive

### Prompt Please let me know the test result on file for Cc1ccc(OCC(=O)Nc2ccc(S(=O)(=O)NC3=NCCCCC3)cc2)cc1 .
### Response inactive

### Prompt Which outcome was entered for the compound COc1ccc(C(=O)N/N=C/c2cc3ccccc3nc2O)cc1 in this test?
### Response inactive

### Prompt Field: outcome | Entry: O=C(CCl)Nc1cccc(S(=O)(=O)NC2=NCCC2)c1
### Response active

### Prompt Would you mind telling me which call this test gave COC(=O)Cc1c(C)c2ccc(O)c(CNCc3ccc(OC)c(OC)c3)c2oc1=O ?
### Response inactive

### Prompt Can you look up the reported call for Cc1ccc(C(=O)NCc2ccc3c(c2)OCO3)cc1N1CCCC1=O for me?
### Response inactive

### Prompt In this assay, the call recorded for COc1cc(C(=O)OCC(=O)Nc2ccc(S(=O)(=O)NC3=NCCCCC3)cc2)cc(OC)c1OC was what?
### Response inactive

### Prompt Given Nc1cccc2c1C(=O)N(Cc1nnc(-c3ccccc3Br)o1)C2=O , state the outcome it received in this test.
### Response inactive

### Prompt // param item: CC(C)=CC(=O)Nc1cccc(S(=O)(=O)NC2=NCCCCC2)c1 ; yields the recorded call
### Response inactive

### Prompt What was the test verdict on COc1ccc(C(=O)N2CCOC2CNC(=O)C(=O)NCc2ccc3c(c2)OCO3)cc1 (stereo unspecified) ?
### Response inactive

### Prompt For COc1ccccc1N1CCN(c2nc(CNC(=O)c3ccc4c(c3)OCO4)nc3ccccc23)CC1 , which call appears in the assay record?
### Response active

### Prompt What outcome does the record of this test show for O=c1oc2c(CN3CCCCC3)c(O)ccc2cc1-c1nc2ccccc2[nH]1 ?
### Response inactive

### Prompt I would be grateful if you could indicate the recorded call for Cc1cccc2cc(C#N)c(NCCNS(=O)(=O)c3ccccc3)nc12 .
### Response inactive

### Prompt Hi, sorry to bother you, what did the test record for Cc1cccc(C(=O)N[C@H](C(=O)Nc2ccc(S(=O)(=O)NC3=NCCCCC3)cc2)C(C)C)c1 ?
### Response inactive

### Prompt Give the logged outcome of this assay for the following compound: Cc1ccc(OCC(=O)Nc2ccc(CN3CCOCC3)cc2)cc1C
### Response inactive

### Prompt GET /call?item= COc1ccccc1N1CCN(c2nc(CNC(=O)C3CC34CCCC4)nc3ccccc23)CC1 (stereo unspecified) returns the recorded outcome of this test.
### Response active

### Prompt # outcome recorded in this test, key = O=C(CCl)Nc1cccc(S(=O)(=O)NC2=NCCCCC2)c1
### Response active

### Prompt GET /call?item= CC(C)(C)c1ccc(OCC(=O)Nc2cccc(S(=O)(=O)NC3=NCCCCC3)c2)cc1 returns the recorded outcome of this test.
### Response inactive

### Prompt Returns: the outcome recorded for Fc1ccc(-n2c(-c3cccs3)nc3nc4ccccc4nc32)cc1 in this assay.
### Response inactive

### Prompt Dear all, I need the recorded test outcome for O=C(CCl)Nc1ccc(S(=O)(=O)NC2=NCCCCC2)cc1 , thank you.
### Response active

### Prompt State the result this test recorded for N=c1c(C(=O)NCC2CCCO2)cc2c(=O)n3ccccc3nc2n1Cc1ccccc1Cl (stereo unspecified) .
### Response inactive

----------
target: Ataxin-2 (Homo sapiens); assay: qHTS for Inhibitors of ATXN expression.; type: functional
Screen size: about 400,000 compounds; about 2,100 (0.53%) were called active. About 14% were inconclusive and are not listed. How the calls were made is not given here. For the sample, actives were picked, then their nearest neighbours and some compounds at random.
Would you mind answering with one of these outcomes? Yes (active), No (inactive)

### Prompt Which outcome did this test record for the molecule COc1ccc(Cn2c(C(=O)O)c(CNCCc3cc(OC)ccc3OC)c3ccc(C)cc32)cc1 ?
### Response Yes

### Prompt What did this assay record as the result for COc1ccc(C(=O)NCC(=O)OCC(=O)NCc2ccco2)cc1 ?
### Response No

### Prompt Recorded call for COC(=O)C1=CN(Cc2cccs2)C=C(C(=O)OC)C1c1cccc(O)c1 ?
### Response No

### Prompt Short answer needed: outcome of this test for COC(=O)c1cc(-c2cc(OC)ccc2OC)nc2c1c(=O)n(C)c(=O)n2Cc1ccccc1 ?
### Response No

### Prompt Dear all, I need the recorded test outcome for COC(=O)c1ccc(S(=O)(=O)NCc2ccco2)o1 , thank you.
### Response No

----------
molecular target: Ataxin-2 (Homo sapiens) (UniProt Q99700); assay: qHTS for Inhibitors of ATXN expression.; type: functional
The campaign covered roughly 400,000 compounds. About 2,100 (0.53%) were called active. About 14% were inconclusive and are not listed. The rule behind the calls is not given here. The sample holds actives, similar compounds and a random draw of the others, so the mix is not that of the screen.
// classify into active, inactive

### Prompt Outcome logged for CC(=O)c1cc2c(C)cc(=O)oc2cc1O in this assay:
### Response inactive

### Prompt How did this test come out for CCCCCCCCCCOC(=O)Cn1c(COc2ccc(Cl)cc2)[n+](C)c2ccccc21 ?
### Response active

### Prompt Each molecule tested received a call. Report the one for FC(F)(F)c1cc(CCN2C(S)=NC[C@@H]2Cc2ccccc2)cc(C(F)(F)F)c1 .
### Response active

### Prompt So what was the verdict on Cc1nn(Cc2ccccc2)c(C)c1C(=O)N1CCN(S(=O)(=O)/C=C/c2ccccc2)CC1 in this test?
### Response inactive

### Prompt In this assay, the call recorded for CCCOc1ccc(-c2c(=O)n(OCC(=O)OCC)c3ccccc3[n+]2[O-])cc1 was what?
### Response inactive

### Prompt Please state the recorded outcome for this molecule: CCOC(=O)c1c(CSc2ccc(CC)cc2)oc2ccc(O)c(CN(C)C)c12
### Response active

### Prompt Returns: the outcome recorded for Cc1cccc(COC[C@H](Cc2ccccc2)N2CCN(C(=O)c3cccc(Cl)c3)CCC2=O)c1 in this assay.
### Response active

### Prompt Could you please tell me the result logged for CCCCCCc1cc2cc(S(=O)(=O)c3ccc(F)c(Cl)c3)c(=O)oc2cc1O in this assay?
### Response inactive

### Prompt Field: outcome | Entry: COc1ccc(NC(=O)N(C)C[C@H]2Oc3c(NC(=O)c4nc5ccccc5s4)cccc3C(=O)N([C@@H](C)CO)C[C@H]2C)cc1
### Response active

### Prompt Hi, do you know how CC(C(=O)N1CCCCCC1)c1ccc([N+](=O)[O-])cc1 (stereo unspecified) came out in this test?
### Response inactive

### Prompt Which outcome was assigned to O=C(c1cccc(Cl)c1)N1CCC(=O)N(C(COCc2cccc(Cl)c2)Cc2ccccc2)CC1 (stereo unspecified) in this test?
### Response active

### Prompt Fill in: this test's call for CN(C)Cc1c(O)ccc2c3c(c(=O)oc12)CCCCC3 is ___
### Response inactive

### Prompt GET /call?item= CCCCc1cc(=O)oc2c(CN(C)C)c(O)ccc12 returns the recorded outcome of this test.
### Response inactive

### Prompt Given Cc1cccc(C(=O)N2CCC(=O)N([C@H](COCc3ccc(Cl)cc3)Cc3ccccc3)CC2)c1 , state the outcome it received in this test.
### Response active

### Prompt GET /call?item= CN(/N=C/c1cc(Cl)cc(Cl)c1O)C(=S)NC(C)(C)C returns the recorded outcome of this test.
### Response inactive

### Prompt Recorded test call requested for Nc1c(C(=O)NCCN2CCOCC2)c2nc3ccccc3nc2n1CCc1ccccc1F
### Response inactive

### Prompt I'd appreciate the recorded outcome for COc1ccc(OC)c(NC(=O)c2nc3ccccc3s2)c1 from this test.
### Response inactive

### Prompt // outcome(item) with item = Cc1cccc(C(=O)NCC(=O)N2CC=C(c3ccccc3)CC2)c1
### Response inactive

### Prompt Can you look up the reported call for Cc1ccc(SC2=C(Sc3ccc(C)cc3)C(=O)c3ccccc3C2=O)cc1 for me?
### Response inactive

### Prompt // outcome(item) with item = c1ccc(N=NC2=NN(c3ccccc3)CS2)cc1
### Response active

### Prompt Short answer needed: outcome of this test for NC1=NC[C@H](c2ccccc2)N1CCc1cc(C(F)(F)F)cc(C(F)(F)F)c1 ?
### Response active
